Entries annotated with measured Cell separation on whole blood (activity %): Erythrocytes
Test system: whole blood
Assay: Cell separation on whole blood (Polymorphprep gradient), activity in separated fractions
Assay type: cell-based, human
Parameters: tested at 2 mCi (74 MBq) in 3 mL blood
Conditions: fraction: erythrocytes
Write the answer as a number in %, unit excluded.

Entry Cc1cc(C)c(C(=S)S[S][99Tc]([S]SC(=S)c2cc(C)c(C)cc2C)[S]C(=S)c2cc(C)c(C)cc2C)cc1C [Example 22] ; Cell separation on whole blood (activity %): Erythrocytes = 20

Entry CCc1ccc(C(=S)S[S][99Tc]([S]SC(=S)c2ccc(CC)cc2)[S]C(=S)c2ccc(CC)cc2)cc1 [Example 8, [^99mTc(4-EtPhCS3)2(4-EtPhCS2)]] ; Cell separation on whole blood (activity %): Erythrocytes = 14

Entry Cc1ccc(C(=S)S[S][99Tc]([S]SC(=S)c2ccc(C)cc2)[S]C(=S)c2ccc(C)cc2)cc1 [Example 5, [^99mTc(4-MePhCS3)2(4-MePhCS2)]] ; Cell separation on whole blood (activity %): Erythrocytes = 17

Entry S=C(Cc1ccccc1)S[S][99Tc]([S]SC(=S)Cc1ccccc1)[S]C(=S)Cc1ccccc1 [Example 27, [^99mTc(PhCH2CS3)2(PhCH2CS2)]] ; Cell separation on whole blood (activity %): Erythrocytes = 11

Entry CCc1ccccc1C(=S)S[S][99Tc]([S]SC(=S)c1ccccc1CC)[S]C(=S)c1ccccc1CC [Example 9, [^99mTc(2-EtPhCS3)2(2-EtPhCS2)]] ; Cell separation on whole blood (activity %): Erythrocytes = 24

====

Test system: human blood
Experiment: Labeling of blood cells: yield of cell labeling in whole blood
Format: cell-based
Conditions: 2 mCi (74 MBq) in 3 mL fresh human blood, 10 minutes, after washings
measurement_label: Yield (±3%) of cell labeling
Write the answer as a number in %, unit excluded.

For orientation, consider the following solved cases.
compound	measurement_label	observed
Oc1ccc(C(=S)S[S][99Tc]([S]SC(=S)c2ccc(O)cc2)[S]C(=S)c2ccc(O)cc2)cc1 [Example 18, [^99mTc(4-OHPhCS3)2(4-OHPhCS2)]]	Yield (±3%) of cell labeling	93
CCc1ccccc1C(=S)S[S][99Tc]([S]SC(=S)c1ccccc1CC)[S]C(=S)c1ccccc1CC [Example 9, [^99mTc(2-EtPhCS3)2(2-EtPhCS2)]]	Yield (±3%) of cell labeling	72

Entry S=C(Cc1ccccc1)S[S][99Tc]([S]SC(=S)Cc1ccccc1)[S]C(=S)Cc1ccccc1 [Example 27, [^99mTc(PhCH2CS3)2(PhCH2CS2)]] ; Yield (±3%) of cell labeling = 88

Entry Fc1ccc(C(=S)S[S][99Tc]([S]SC(=S)c2ccc(F)cc2)[S]C(=S)c2ccc(F)cc2)cc1 [Example 20, [^99mTc(4-FPhCS3)2 (4-FPhCS2)]] ; Yield (±3%) of cell labeling = 91

Entry COc1cccc(C(=S)S[S][99Tc]([S]SC(=S)c2cccc(OC)c2)[S]C(=S)c2cccc(OC)c2)c1 [Example 15, [^99mTc(3-MeOPhCS3)2(3-MeOPhCS2)]] ; Yield (±3%) of cell labeling = 99

Entry Cc1cc(C)c(C(=S)S[S][99Tc]([S]SC(=S)c2cc(C)c(C)cc2C)[S]C(=S)c2cc(C)c(C)cc2C)cc1C [Example 21] ; Yield (±3%) of cell labeling = 90
